Source listed as patent US10238658B2.

system: RSV A2; assay: In vitro RSV virus load (F-protein ELISA) in primary bronchial epithelial cells; format: cell-based, respiratory syncytical virus; details: human respiratory syncytial virus, Primary bronchial epithelial cell; read-out: RSV (F-Elisa) (HBEC) IC50
propertyLabel: IC50 (nM)
Hi! Could you send only the number? It should be in nM, unit omitted.

// query Annotate the molecule "Cc1ccc(-n2nc(C(C)(C)C)cc2NC(=O)Nc2ccc(Oc3ccnc(Nc4ccccc4)n3)c3ccccc23)cc1" with its measured IC50.
// result 15.4

---

tested on: TNFα; test: LPS-induced TNFα release in THP-1 cells; assay type: cell-based; settings: Homo sapiens, THP-1, THP1 cells
# IC50 values compiled below
Please state the figure in nM; there is no need to write the unit.

Solved cases (3 shown):
                                 smilesrepr  propertylabel  unitslabel  resultvalue
0  COc1ccc(Nc2nccc(Oc3ccc(NC(=O)Nc4cc(C(C)(C)C)nn4-c4ccc(C)cc4)c4ccccc34)n2)cc1Cl           IC50          nM          0.4
1  Cc1ccc(-n2nc(C(C)(C)C)cc2NC(=O)Nc2ccc(Oc3ccnc(Nc4ccc(Cl)cc4)n3)c3ccccc23)cc1           IC50          nM          4.1
2  Cc1ccc(Nc2nccc(Oc3ccc(NC(=O)Nc4cc(C(C)(C)C)nn4-c4ccc(C)cc4)c4ccccc34)n2)cc1           IC50          nM           21

// query Note down IC50 recorded for "COc1ccc(Nc2nccc(Oc3ccc(NC(=O)Nc4cc(C(C)(C)C)nn4-c4ccc(C)cc4)c4ccccc34)n2)cc1"
// result 4.3

// query Please list IC50 recorded for the molecule "Cc1ccc(-n2nc(C(C)(C)C)cc2NC(=O)Nc2ccc(Oc3ccnc(Nc4ccc(O)cc4O)n3)c3ccccc23)cc1"
// result 14

// query Provide one value: measured IC50 of "COc1ccccc1Nc1nccc(Oc2ccc(NC(=O)Nc3cc(C(C)(C)C)nn3-c3ccc(C)cc3)c3ccccc23)n1"
// result 66

// query Using known records, supply IC50 for "CCOc1ccc(Nc2nccc(Oc3ccc(NC(=O)Nc4cc(C(C)(C)C)nn4-c4ccc(C)cc4)c4ccccc34)n2)cc1"
// result 30

// query Look up and state reported IC50 for "Cc1ccc(-n2nc(C(C)(C)C)cc2NC(=O)Nc2ccc(Oc3ccnc(Nc4ccc(F)cc4)n3)c3ccccc23)cc1"
// result 24

// query Provide only the value of recorded IC50 for "Cc1ccc(-n2nc(C(C)(C)C)cc2NC(=O)Nc2ccc(Oc3ccnc(Nc4ccccc4Cl)n3)c3ccccc23)cc1"
// result 225

// query Return value of IC50 for input "COc1ccc(Nc2nccc(Oc3ccc(NC(=O)Nc4cc(C(C)(C)C)nn4-c4ccc(C)cc4)c4ccccc34)n2)c(OC)c1" , no commentary.
// result 225

// query Provide IC50 value for the following molecule: "Cc1ccc(-n2nc(C(C)(C)C)cc2NC(=O)Nc2ccc(Oc3ccnc(Nc4ccccc4F)n3)c3ccccc23)cc1"
// result 4.6

---

Test system: TNFα
Assay: LPS-induced TNFα release in THP-1 cells
Assay type: cell-based
Details: Homo sapiens, THP-1, THP1 cells
Protocol: THP-1 cells, a human monocytic cell line, were stimulated with 3 μg/mL of LPS (from E. Coli; 0111:B4, Sigma) for 4 hr and the supernatant collected for determination of the TNFα concentration by sandwich ELISA (Duo-set, R&D systems). The inhibition of TNFα production was calculated at each concentration by comparison with vehicle control.
Measured IC50 values are reported for all entries that follow.
Form entry: value (nM) — number only.

>>> print(df.to_string())
                                 smilesrepr  resultvalue
0  COc1ccc(-n2nc(C(C)(C)C)cc2NC(=O)Nc2ccc(Oc3ccnc(Nc4ccccc4)n3)c3ccccc23)cc1           10
1  Cc1ccc(-n2nc(C(C)(C)C)cc2NC(=O)Nc2ccc(Oc3ccnc(Nc4ccc(C)c(O)c4)n3)c3ccccc23)cc1          1.9
2  Cc1ccc(-n2nc(C(C)(C)C)cc2NC(=O)Nc2ccc(Oc3ccnc(Nc4ccc(O)cc4F)n3)c3ccccc23)cc1          1.6
3  Cc1ccc(-n2nc(C(C)(C)C)cc2NC(=O)Nc2ccc(Oc3ccnc(Nc4ccccc4C)n3)c3ccccc23)cc1           17
4  Cc1ccc(-n2nc(C(C)(C)C)cc2NC(=O)Nc2ccc(Oc3ccnc(Nc4cccc(O)c4)n3)c3ccccc23)cc1          2.8
5  CC(C)(C)c1cc(NC(=O)Nc2ccc(Oc3ccnc(Nc4ccccc4)n3)c3ccccc23)n(-c2ccc(O)cc2)n1          1.2
6  Cc1ccc(-n2nc(C(C)(C)C)cc2NC(=O)Nc2ccc(Oc3ccnc(Nc4ccc(O)cc4Cl)n3)c3ccccc23)cc1          6.1
7  Cc1ccc(-n2nc(C(C)(C)C)cc2NC(=O)Nc2ccc(Oc3ccnc(Nc4cc(C)ccc4C)n3)c3ccccc23)cc1           45
8  Cc1ccc(-n2nc(C(C)(C)C)cc2NC(=O)Nc2ccc(Oc3ccnc(Nc4ccc(O)cc4C)n3)c3ccccc23)cc1          0.8
9  Cc1ccc(-n2nc(C(C)(C)C)cc2NC(=O)Nc2ccc(Oc3ccnc(Nc4ccccc4C(C)C)n3)c3ccccc23)cc1          121

// query Identify the reported IC50 for the following entry. "COc1cccc(Nc2nccc(Oc3ccc(NC(=O)Nc4cc(C(C)(C)C)nn4-c4ccc(C)cc4)c4ccccc34)n2)c1"
// result 2.7

// query Could you please provide reported IC50 for "Cc1ccc(-n2nc(C(C)(C)C)cc2NC(=O)Nc2ccc(Oc3ccnc(Nc4cccc(F)c4)n3)c3ccccc23)cc1" ? Thanks!
// result 3

// query Write down IC50 measured for item "COc1ccc(Nc2nccc(Oc3ccc(NC(=O)Nc4cc(C(C)(C)C)nn4-c4ccc(C)cc4)c4ccccc34)n2)cc1OC"
// result 0.5
